Values were extracted from patent US20250188176A1.

- tgt: T1, Extracellular domain (ECD) of the canine IL-4 receptor alpha-AviTag-His Tag (canine)
- T1 construct: expressed in CHO cells; also called canine IL-4RA; canine IL4Ra
- T1 chain: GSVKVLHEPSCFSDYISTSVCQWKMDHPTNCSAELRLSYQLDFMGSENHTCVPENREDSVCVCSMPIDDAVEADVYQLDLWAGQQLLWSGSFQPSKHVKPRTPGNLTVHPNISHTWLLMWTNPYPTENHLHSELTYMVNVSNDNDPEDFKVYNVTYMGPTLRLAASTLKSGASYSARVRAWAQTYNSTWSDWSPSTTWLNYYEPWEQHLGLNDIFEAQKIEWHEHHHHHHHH
- experiment.summary: SPR, IgG captured via anti-dog Fc

| binder | readout.unit | kon |
| --- | --- | --- |
| 21188-H + 21188-L (antibody, V domains shown) VH: EVQLVESGGDLVKPGGSLRLSCVASGFTFRDYAMTWVRQAPGKGLQWLSLISGSGGKTYYADAVKGRFTISRDNAKNTLYLQMNSLRAEDTAVYYCAVDRLTKTIRPQYYGLWHWGQGTLVTVSS VL: DIVMTQTPLSLSVSPGETASISCRSSQSLTYSIGYNYLDWYMQKPGQSPQGLIYLGSKRASGVSDRFSGSGSGADFTLKISRVEADDAGVYYCMQGLQSPLGFGQGTKLEIKR | M⁻¹ s⁻¹ | 332000 |
| 21188-H + GFmix_THS-L (antibody, V domains shown) VH: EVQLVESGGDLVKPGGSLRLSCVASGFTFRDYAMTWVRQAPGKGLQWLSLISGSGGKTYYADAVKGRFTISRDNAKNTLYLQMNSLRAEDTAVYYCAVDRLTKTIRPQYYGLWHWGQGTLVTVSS VL: DIVMTQTPLSLSVSPGETASISCRSSQSLTYSIGYNYLDWYMQKPGQSPQGLIYLGSKRASGVSDRFSGSGSGADFTLKISRVEADDAGVYYCMQGLHSPLGFGQGTKLEIKR | M⁻¹ s⁻¹ | 357000 |
| 21188-H + FJP10A09-L (antibody, V domains shown) VH: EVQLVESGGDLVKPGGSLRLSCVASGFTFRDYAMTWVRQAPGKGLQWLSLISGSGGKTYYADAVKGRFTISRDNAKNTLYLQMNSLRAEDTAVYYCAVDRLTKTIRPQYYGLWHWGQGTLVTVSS VL: DIVMTQTPLSLSVSPGETASISCRSSQSLTYSIGYNYLDWYMQKPGQSPQGLIYLGSKRASGVSDRFSGSGSGADFTLKISRVEADDAGVYYCMQGLHSPLSFGQGTKLEIKR | M⁻¹ s⁻¹ | 324000 |
